PROPERTY_MEASURED: melting point

STRUCTURE_SMILES_STRING: O=C(CCCCCCC(=O)Nc1ccc2ccccc2c1)NO
OBSERVED: 142.5 to 144 °C
--
STRUCTURE_SMILES_STRING: O=C(/C=C/C=C/c1ccccc1[N+](=O)[O-])NCCCCCC(=O)NO
OBSERVED: 131 to 133 °C
--
STRUCTURE_SMILES_STRING: C/C(=C\C=C\c1ccccc1)C(=O)NCCCCCC(=O)NO
OBSERVED: 158 to 160 °C
--
STRUCTURE_SMILES_STRING: O=C(CCCCCNC(=O)Cc1ccc(-c2ccccc2)cc1)NO
OBSERVED: 226 to 227 °C
--
STRUCTURE_SMILES_STRING: O=C(CCCCCNC(=O)c1cccc2ccccc12)NO
OBSERVED: 118 to 119 °C
--
STRUCTURE_SMILES_STRING: O=C(CCCCCCC(=O)NCCc1cccc2ccccc12)NO
OBSERVED: 120 to 121.5 °C
--
STRUCTURE_SMILES_STRING: O=C(CCCCCNC(=O)c1ccc([N+](=O)[O-])cc1)NO
OBSERVED: 139.5 to 141 °C
--
STRUCTURE_SMILES_STRING: O=C(C#Cc1ccccc1)NCCCCCC(=O)NO
OBSERVED: 112 to 113 °C
--
STRUCTURE_SMILES_STRING: O=C(CCCCCNC(=O)CCCCc1ccccc1)NO
OBSERVED: 97 to 98 °C
--
STRUCTURE_SMILES_STRING: O=C(CCCCCCC(=O)NCc1cccc2ccccc12)NO
OBSERVED: 141 to 143 °C

----------
Counter-ions that a name gives are not always drawn.

COMPOUND: O=C(CCCCC(=O)NCCc1c[nH]c2ccccc12)NO [PX116217]
melting point: 121 to 122.5 °C
//
COMPOUND: O=C(/C=C/c1cccnc1)NCCCCCC(=O)NO (as salt: oxalate) [PX116231]
melting point: 157 to 159 °C
//
COMPOUND: O=C(/C=C/c1cccs1)NCCCCCC(=O)NO [PX117247]
melting point: 151 to 153 °C
//
COMPOUND: O=C(CCCCCNC(=O)CC/C=C\c1ccccc1)NO [PX117444]
melting point: 101 to 103 °C
//
COMPOUND: COc1ccc(/C=C/C=C/C(=O)NCCCCCC(=O)NO)cc1 [PX106524]
melting point: 152 to 154 °C
//
COMPOUND: O=C(CCCCCCCNC(=O)c1ccc2ccccc2c1)NO [PX106515]
melting point: 138 to 139 °C
//
COMPOUND: O=C(/C=C/C=C/c1ccc(Cl)cc1)NCCCCCC(=O)NO [PX105850]
melting point: 164 to 168 °C
//
COMPOUND: O=C(CCCCCNC(=O)c1ccccc1)NO [PX083449, N-(5-Hydroxycarbamoyl-pentyl)-benzamide]
melting point: 102 to 104 °C
//
COMPOUND: O=C(/C=C/C=C/c1ccccc1)NCCCCCCCC(=O)NO [PX105851]
melting point: 160 to 162 °C
//
COMPOUND: O=C(CCCCCNC(=O)[C@H](Cc1c[nH]c2ccccc12)NC(=O)Cc1ccc2ccccc2c1)NO [PX117406]
melting point: 112 to 114 °C
//
COMPOUND: O=C(/C=C/C=C/c1ccccc1)NC[C@H]1CC[C@H](C(=O)NO)CC1 [PX105552]
melting point: 210 to 212 °C
//
COMPOUND: O=C(/C=C/c1ccccn1)NCCCCCC(=O)NO (as salt: oxalate) [PX106528]
melting point: 126 to 128 °C
//
COMPOUND: O=C(/C=C/C=C/c1ccc([N+](=O)[O-])cc1)NCCCCCC(=O)NO [PX105847]
melting point: 111 to 113 °C
//
COMPOUND: O=C(CCCCCCC(=O)Nc1cccc2ccccc12)NO [PX116218]
melting point: 115 to 116.5 °C
//
COMPOUND: O=C(/C=C/c1ccc(C(F)(F)F)cc1)NCCCCCC(=O)NO [PX117717]
melting point: 132 to 134 °C
//
COMPOUND: O=C(CCCCCNC(=O)CCc1ccccc1)NO [PX106516]
melting point: 107 °C
//
COMPOUND: CN(C)c1ccc(CC(=O)NCCCCCC(=O)NO)cc1 [PX117458]
melting point: 124 to 126 °C
//
COMPOUND: O=C(/C=C/C=C/c1ccc(-c2ccccc2)cc1)NCCCCCC(=O)NO [PX105848]
melting point: 222 to 224 °C
//
COMPOUND: Cc1ccc(C(CC(=O)NCCCCCC(=O)NO)NC(=O)OCc2ccccc2)cc1 (centres unmarked) [PX117729]
melting point: 146 to 148 °C
//
COMPOUND: O=C(CCCCCC(=O)Nc1ccc2ccccc2c1)NO [PX117461]
melting point: 142 to 144 °C
